Tested on: EpCAM
Assay: Spot phage ELISA, EpCAM
Type: binding, human
Conditions: spot phage ELISA signal-to-noise on EpCAM
Where no end group is shown, it is not given here.
Lab note: anything with S/N below 20 is marked Yes; values at 20 or higher are marked No.

A selection of reference data follows.
residues="GCFRHYVRCKQDSDCLAGCVCWFDWSCG (disulfide (positions not given here)) [EpCAM EET I-II 13]" answer_label=No
residues="GPTQSHYGQCGGPGYQGFIVCSGTTCQYRQPSESQCLPGAS (disulfide (positions not given here)) [EpCAM CBD 2]" answer_label=No
residues="GPTQSHYGQCGGRGYVGGIKCSGTTCQOVHAHPSQCLPGAS (disulfide) [EpCAM CBD 72]" answer_label=Yes

I wonder whether GPTQSHYGQCGGPGYYGAIVCSGTTCQHTFITHSQCLPGAS (disulfide (positions not given here)) [EpCAM CBD 57] has S/N below 20. Can you tell?
Yes

Does GPTQSHYGQCGGEGYLGALRCSGTTCQYTQIKPSQCLPGAS (disulfide (positions not given here)) [EpCAM CBD 8] have S/N strictly under 20?
No

State whether 20 exceeds S/N recorded for GPTQSHYGQCGGDGYVGAILCSGTTCQHVSVFPSQCLPGAS (disulfide (positions not given here)) [EpCAM CBD 56] .
Yes
